- Target or test system: wild-type α7 nicotinic acetylcholine receptor (Homo sapiens)
- Construct: expressed in transfected cells; host or cells: Xenopus laevis oocytes
- Sequence (P36544 23-502): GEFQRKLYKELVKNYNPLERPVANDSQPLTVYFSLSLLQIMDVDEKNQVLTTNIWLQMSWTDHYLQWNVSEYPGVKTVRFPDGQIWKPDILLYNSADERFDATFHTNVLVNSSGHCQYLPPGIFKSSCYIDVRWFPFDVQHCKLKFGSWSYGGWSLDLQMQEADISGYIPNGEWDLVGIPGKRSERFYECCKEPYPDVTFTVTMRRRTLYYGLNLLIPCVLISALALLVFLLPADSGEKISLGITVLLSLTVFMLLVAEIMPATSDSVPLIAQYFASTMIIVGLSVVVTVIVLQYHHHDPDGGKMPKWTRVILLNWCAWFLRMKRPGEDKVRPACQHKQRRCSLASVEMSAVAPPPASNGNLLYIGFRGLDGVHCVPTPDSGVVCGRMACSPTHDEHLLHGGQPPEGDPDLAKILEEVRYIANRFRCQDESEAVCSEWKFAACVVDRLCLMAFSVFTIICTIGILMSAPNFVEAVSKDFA
- Protocol details: Two electrode voltage clamp in Xenopus oocytes, agonist and modulator responses
- Type: cell-based
Recorded endpoint: pEC50
Answer as the number alone; pEC50 is minus log10 of concentration in mol/L.

So what does the record say about pEC50 for Oc1ccc2[nH]ccc2c1 [5-HI, 5-hydroxyindole] ? 3.18

----------
- Target or test system: Chimera 2 (Homo sapiens, UniProt P36544, M226I/T225V)
- Sequence (P36544 with tags, fused parts or gaps T225V/M226I): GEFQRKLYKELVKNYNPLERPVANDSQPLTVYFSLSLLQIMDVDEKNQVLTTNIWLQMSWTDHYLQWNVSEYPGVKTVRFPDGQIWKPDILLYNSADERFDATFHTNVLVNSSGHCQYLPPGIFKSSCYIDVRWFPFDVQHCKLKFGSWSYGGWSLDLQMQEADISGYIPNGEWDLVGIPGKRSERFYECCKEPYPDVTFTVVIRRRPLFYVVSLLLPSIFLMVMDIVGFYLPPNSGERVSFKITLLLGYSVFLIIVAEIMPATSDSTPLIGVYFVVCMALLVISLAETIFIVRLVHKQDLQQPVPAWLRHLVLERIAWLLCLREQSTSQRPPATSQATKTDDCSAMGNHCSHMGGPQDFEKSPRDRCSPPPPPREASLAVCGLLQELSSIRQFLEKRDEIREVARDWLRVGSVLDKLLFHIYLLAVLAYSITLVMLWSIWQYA
- Protocol details: Membrane potential imaging (FLIPR-FMP) in HEK-293 cells
- Type: cell-based
- Parameters: expressed in transfected cells
- Experimental setup: read-out: Agonist concentration-response EC50; in the presence of 1 mM 5-HI
Recorded endpoint: pEC50
Answer as the number alone; pEC50 is minus log10 of concentration in mol/L.

So what does the record say about pEC50 for O=C(N[C@H]1CN2CCC1CC2)c1ccc(Cl)cc1 ? 7.43

Data origin, for the record: patent US8759504B2
